Parameter: pKi. Scope: all listed entries.
# system: serotonin 1A (5HT1A) receptor (Rattus norvegicus, UniProt P19327)
# Sequence (P19327 1-422): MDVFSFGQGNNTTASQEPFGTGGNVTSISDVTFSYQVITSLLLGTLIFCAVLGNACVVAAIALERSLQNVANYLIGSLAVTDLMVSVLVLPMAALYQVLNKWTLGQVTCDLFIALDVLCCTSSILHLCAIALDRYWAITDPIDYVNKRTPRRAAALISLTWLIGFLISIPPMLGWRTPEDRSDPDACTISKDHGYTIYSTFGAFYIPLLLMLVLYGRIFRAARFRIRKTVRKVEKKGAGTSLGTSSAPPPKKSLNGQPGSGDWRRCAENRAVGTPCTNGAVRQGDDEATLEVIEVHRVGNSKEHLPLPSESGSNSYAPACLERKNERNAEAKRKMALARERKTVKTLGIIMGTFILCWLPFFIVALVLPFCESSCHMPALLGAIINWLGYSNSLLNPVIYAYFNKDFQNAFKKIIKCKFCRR
pKi: −log10 of the molar value.
assay_readout: pKi

CC(C)Oc1cccc(N2CCN(CCCCOc3cnc4c(n3)CCCC4)CC2)n1 : 8.52
Clc1cccc(N2CCN(CCCCOc3cnc4c(n3)CCCC4)CC2)n1 : 8.68
CCOc1cccc(N2CCN(CCCCOc3cnc4c(n3)CCCC4)CC2)n1 : 8.72
Cc1ccc(C)c(N2CCN(CCCCOc3cnc4c(n3)CCCC4)CC2)n1 : 7.60
Clc1cccnc1N1CCN(CCCCOc2cnc3c(n2)CCCC3)CC1 : 7.89
Cc1cccc(N2CCN(CCCCOc3cnc4c(n3)CCCC4)CC2)n1 : 9.22
N#Cc1cccnc1N1CCN(CCCCOc2cnc3c(n2)CCCC3)CC1 : 8.32
c1cnc(N2CCN(CCCCOc3cnc4c(n3)CCCC4)CC2)nc1 : 8.22
Cc1nc2c(nc1OCCCCN1CCN(c3ccccn3)CC1)CCCC2 : 7.80
COc1cc(OC)nc(N2CCN(CCCCOc3cnc4c(n3)CCCC4)CC2)n1 : 8.18
Cc1cc(C)c(C#N)c(N2CCN(CCCCOc3cnc4c(n3)CCCC4)CC2)n1 : 7.80
COc1cccc(N2CCN(CCCCOc3cnc4c(n3)CCCC4)CC2)n1 : 8.89
CCCOc1cccc(N2CCN(CCCCOc3cnc4c(n3)CCCC4)CC2)n1 : 8.74
c1ccc(N2CCN(CCCCOc3cnc4c(n3)CCCC4)CC2)nc1 : 8.80
FC(F)(F)c1ccnc(N2CCN(CCCCOc3cnc4c(n3)CCCC4)CC2)c1 : 7.96
c1ccc(N2CCN(CCCOc3cnc4c(n3)CCCC4)CC2)nc1 : 7.85
Cc1ccnc(N2CCN(CCCCOc3cnc4c(n3)CCCC4)CC2)n1 : 8.41

* * *

# system: serotonin 1A (5HT1A) receptor (Rattus norvegicus, UniProt P19327)
pKi: −log10 of the molar value.
Rule: 1 for pKi not less than 8, -1 for anything less.

c1cnc(N2CCN(CCCCCOc3cnc4c(n3)CCCC4)CC2)nc1 [Compound 512] : -1
c1cnc(N2CCN(CCCOc3cnc4c(n3)CCCC4)CC2)nc1 [Compound 538] : -1
Cc1nc2c(nc1OCCCCN1CCN(c3ncccn3)CC1)CCCC2 [Compound 410] : -1
FC(F)(F)c1cccc(N2CCN(CCCCOc3cnc4c(n3)CCCC4)CC2)n1 [Compound 640] : 1
COc1cccnc1N1CCN(CCCCOc2cnc3c(n2)CCCC3)CC1 [Compound 557] : 1
Cc1cc(C)nc(N2CCN(CCCCOc3cnc4c(n3)CCCC4)CC2)n1 [Compound 481] : 1
